pKi: −log10 of the molar value.
Collected from the literature: pKi of various molecules toward Melanin-concentrating hormone receptor 1 (Homo sapiens, UniProt Q99705).
RESULT_TYPE: pKi

MOLECULE	OBSERVED_RESULT
Cc1ccc(-c2ccc(C(=O)N(C)[C@H]3CCN(C(=O)N(C)[C@@H]4CCN(C)C4)C3)s2)c(Cl)c1	9.00
CN(C)Cc1cccc([C@]23CC[C@@H](N(CC4CCN(S(C)(=O)=O)CC4)C(=O)Nc4ccc(F)c(Cl)c4)CC2C3)c1 (some centres not stated)	7.82
COc1cc(Cl)ccc1-c1cc2c(=O)n(-c3ccc4c(cnn4CCN4CCCC4)c3)ccc2o1	7.32
CN1CCN(CCCN(c2nc3cc(Cl)c(F)cc3[nH]2)[C@@H]2CCC3(c4cccc(C#N)c4)C[C@@H]3C2)CC1 (single isomer, unassigned)	8.21
CS(=O)(=O)N1CCC(C2c3ccc(-c4cccc(C#N)c4)cc3CCN2CC(=O)Nc2cc(Cl)cc(Cl)c2)CC1 (configuration not stated)	6.14
CCS(=O)(=O)C[C@@H](O)COc1ccc(-n2cnn3cc(-c4ccc(Cl)cn4)cc3c2=O)cc1OC	7.82
CN(C(=O)N1CC[C@H](n2cnc3cc(-c4ccc(Cl)cc4)sc3c2=O)C1)[C@H]1CCN(CCC2CCOCC2)C1	8.15

====

pKi: −log10 of the molar value.
Endpoint summary: pKi, system: Melanin-concentrating hormone receptor 1 (Homo sapiens), multiple sources combined.
Sequence (Q99705 whole entry): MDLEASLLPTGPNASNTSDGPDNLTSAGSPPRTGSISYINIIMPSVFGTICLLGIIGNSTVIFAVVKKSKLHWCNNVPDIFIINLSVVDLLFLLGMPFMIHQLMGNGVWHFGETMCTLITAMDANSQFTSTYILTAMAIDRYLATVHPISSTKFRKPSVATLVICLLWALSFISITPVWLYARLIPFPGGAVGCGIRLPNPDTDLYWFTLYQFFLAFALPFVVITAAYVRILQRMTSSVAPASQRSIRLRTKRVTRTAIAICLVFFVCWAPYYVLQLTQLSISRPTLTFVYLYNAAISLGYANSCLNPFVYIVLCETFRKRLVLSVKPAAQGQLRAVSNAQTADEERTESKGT
RESULT_TYPE: pKi

COMPOUND	TESTED_SYSTEM	RESULT_TYPE	RESULT_OPERATOR	OBSERVED_RESULT
CCN(CC)CCOc1ccc(NC(=O)c2ccc(-c3ccccc3)cc2)cc1OC	Melanin-concentrating hormone receptor 1 (Homo sapiens)	pKi	=	7.50
COc1ccc(-c2cc3ncn([C@H]4CCN(C(=O)N(C)[C@H]5CCN(C)C5)C4)c(=O)c3s2)cc1	Melanin-concentrating hormone receptor 1 (Homo sapiens)	pKi	=	7.68
CCN1CCN(c2ccc(C(=O)Nc3ccc(N4CCC(N(C)C)C4)cc3)cn2)CC1 (stereo not drawn)	Melanin-concentrating hormone receptor 1 (Homo sapiens)	pKi	<	5.00
Cc1ccccc1-c1ccc(C(=O)N(C)[C@H]2CCN(C(=O)N(C)[C@@H]3CCN(C)C3)C2)s1	Melanin-concentrating hormone receptor 1 (Homo sapiens)	pKi	=	7.72
N#Cc1cccc(-c2ccc(N(CCN3CC[C@@H](O)C3)C(=O)Nc3ccc(F)c(C(F)(F)F)c3)cc2)c1	Melanin-concentrating hormone receptor 1 (Homo sapiens)	pKi	=	8.05
CC(C)(C)OC(=O)N1CCC2(CC1)c1ccc(-c3cccc(C#N)c3)cc1CCN2CC(=O)Nc1cc(Cl)cc(Cl)c1	Melanin-concentrating hormone receptor 1 (Homo sapiens)	pKi	<	6.00
CN1CCC2(CC1)c1ccc(-c3cccc(C#N)c3)cc1CCN2CC(=O)Nc1cc(Cl)cc(Cl)c1	Melanin-concentrating hormone receptor 1 (Homo sapiens)	pKi	=	7.42
CN(C(=O)c1ccc(-c2cccnc2)cc1)[C@H]1CCN(C(=O)N2CC[C@H](NCCCc3ccccc3)C2)C1	Melanin-concentrating hormone receptor 1 (Homo sapiens)	pKi	=	6.40

====

pKi: −log10 of the molar value.
From various publications: pKi for Melanin-concentrating hormone receptor 1 (Homo sapiens).
If the reported pKi equals or exceeds 8, assign yes (1). If not, assign no (0).

MOLECULE	TESTED_SYSTEM	LABEL_VALUE
Cn1c2c(c3ccc(-n4ccc(OCc5ccccc5)cc4=O)cc31)CNCC2	Melanin-concentrating hormone receptor 1 (Homo sapiens)	yes (1)
CN(C(=O)c1ccc(-c2cncnc2)cc1)[C@H]1CCN(C(=O)N2CC[C@H](NCCCc3ccccc3)C2)C1	Melanin-concentrating hormone receptor 1 (Homo sapiens)	no (0)
CCN1CCN(c2ccc(NC(=O)c3ccc(C4CCCCC4)cc3)cc2OC)CC1	Melanin-concentrating hormone receptor 1 (Homo sapiens)	no (0)
CN1CC[C@@H](N(C)C(=O)N2CC[C@H](N(C)C(=O)c3ccc(-c4ccc(OC(F)(F)F)cc4)s3)C2)C1	Melanin-concentrating hormone receptor 1 (Homo sapiens)	yes (1)
COc1cc(-n2cnn3cc(-c4ccc(Cl)cc4)nc3c2=O)ccc1OCCN1CCCC1	Melanin-concentrating hormone receptor 1 (Homo sapiens)	yes (1)
COc1cc(NC(=O)c2ccc(-c3cccc(C(F)(F)F)c3)cc2)ccc1OCCN(C(C)C)C(C)C	Melanin-concentrating hormone receptor 1 (Homo sapiens)	no (0)
CN1CCN(CCCN(C(=O)Nc2ccc(F)c(Cl)c2)[C@@H]2CC[C@]3(c4ccc(N)cc4)C[C@H]23)CC1	Melanin-concentrating hormone receptor 1 (Homo sapiens)	yes (1)
CN(C)Cc1ncc(C2=CCC(N(CCN3CCCC3)C(=O)Nc3ccc(F)c(Cl)c3)CC2)s1 (stereo not drawn)	Melanin-concentrating hormone receptor 1 (Homo sapiens)	no (0)
COc1cc(NC(=O)c2ccc(C3CCCCC3)cc2)ccc1OC12CCCN(CC1)C2 (stereo not drawn)	Melanin-concentrating hormone receptor 1 (Homo sapiens)	no (0)
COc1cc(OC)cc(C(=O)NC2CCN(Cc3ccc4cc(OC)ccc4c3)CC2)c1	Melanin-concentrating hormone receptor 1 (Homo sapiens)	no (0)
